All figures here come from the supplement of paper PMC8149375.

Test system: 786-O
Assay: minimum viability across doses, drug alone, relative to DMSO (fraction); higher = less growth inhibition
Conditions: treatment: drug alone; 5 days
# if measured minimum viability across doses < 0.1: 1  # else: -1

Query: Please indicate whether the reported minimum viability across doses of CCCNC(=O)Nc1ccc(Oc2ncnc3cc(OC)c(OC)cc23)cc1Cl is strictly below 0.1.
Reply: -1

###

System: 769-P
Assay: GI50, drug alone; higher = less potent
Conditions: treatment: drug alone; 5 days
metricName: GI50, drug alone

CC(C)(C)c1cc(C=C(C#N)C#N)cc(Br)c1O [AG-1024]; > 10 µM
CNC(=O)c1cc(Oc2ccc(NC(=O)Nc3cc(C(C)(C)C)nn3-c3ccc4ncccc4c3)c(F)c2)ccn1 [DCC-2036 (Rebastinib)]; > 10 µM

Let's switch to this molecule now.
Query: What does the record list as GI50, drug alone for COc1cc2nccc(Oc3ccc(NC(=O)C4(C(=O)Nc5ccc(F)cc5)CC4)cc3)c2cc1OC [XL-184 free base (Cabozantinib)] ?
Reply: > 10 µM

###

Tested on: TK-10
Assay: minimum viability across doses, drug + dasatinib, relative to DMSO (fraction); higher = less growth inhibition
Settings: treatment: drug + dasatinib (fixed dose, not stated); 5 days
Parameter minimum viability across doses: see the listing below.
Response field accepts a number only; no unit should be typed.

Use these answered entries as a reference point.
COc1ccc(-c2ccc3ncc4c(c3c2)n(-c2ccc(N3CCNCC3)c(C(F)(F)F)c2)c(=O)n4C)cn1.O=C(O)/C=C\C(=O)O [NVP-BGT226] + Cc1nc(Nc2ncc(C(=O)Nc3c(C)cccc3Cl)s2)cc(N2CCN(CCO)CC2)n1; 0.00345
Cl.N=C(N)NC(=N)NCCc1ccccc1 [Phenformin hydrochloride] + Cc1nc(Nc2ncc(C(=O)Nc3c(C)cccc3Cl)s2)cc(N2CCN(CCO)CC2)n1; 0.315
CC[C@H](Nc1ncnc2[nH]cnc12)c1nc2cccc(F)c2c(=O)n1-c1ccccc1 [CAL-101 (GS-1101)] + Cc1nc(Nc2ncc(C(=O)Nc3c(C)cccc3Cl)s2)cc(N2CCN(CCO)CC2)n1; 0.493
COc1cc2c(Nc3ccc(Br)cc3F)ncnc2cc1OCC1CCN(C)CC1 [Vandetanib (Zactima)] + Cc1nc(Nc2ncc(C(=O)Nc3c(C)cccc3Cl)s2)cc(N2CCN(CCO)CC2)n1; 0.161
COc1ccc(S(=O)(=O)N(C(C)=O)c2ccccc2/C=C/c2cc[n+]([O-])cc2)cc1 [HMN-214] + Cc1nc(Nc2ncc(C(=O)Nc3c(C)cccc3Cl)s2)cc(N2CCN(CCO)CC2)n1; 0.297
OCc1ccc(-c2ccc(-c3ccc(CO)s3)o2)s1 + Cc1nc(Nc2ncc(C(=O)Nc3c(C)cccc3Cl)s2)cc(N2CCN(CCO)CC2)n1; 0.0365
CCn1c(-c2nonc2N)nc2c(C#CC(C)(C)O)ncc(OC[C@H]3CCCNC3)c21 + Cc1nc(Nc2ncc(C(=O)Nc3c(C)cccc3Cl)s2)cc(N2CCN(CCO)CC2)n1; 0.421
O=C1NC(=O)[C@@H](c2cn3c4c(cccc24)CCC3)[C@@H]1c1c[nH]c2ccccc12 [ARQ 197 (Tivantinib)] + Cc1nc(Nc2ncc(C(=O)Nc3c(C)cccc3Cl)s2)cc(N2CCN(CCO)CC2)n1; 0.298

Query: What does the record list as minimum viability across doses for Nc1cccc2c1C(=O)N(C1CCC(=O)NC1=O)C2=O (stereo not given) [Pomalidomide] + Cc1nc(Nc2ncc(C(=O)Nc3c(C)cccc3Cl)s2)cc(N2CCN(CCO)CC2)n1 ?
Reply: 0.639

Query: What does the record list as minimum viability across doses for O=C1NC(=O)/C(=C/c2ccc(-c3ccc(F)cc3O)o2)S1 + Cc1nc(Nc2ncc(C(=O)Nc3c(C)cccc3Cl)s2)cc(N2CCN(CCO)CC2)n1 ?
Reply: 0.649
